The values you see were collected from patent US20240093034A1.

Test system: platelet-derived EVs
Assay: Labelling of extracellular vesicles with dyes (Superose 6 HPLC, UV and FLD detection)
Conditions: EV + 2 μM dye, 1 hr 37° C.; void peak area, 562 nm/583 nm (Ex/Em)
Procedure: Labelling of extracellular vesicles (EVs) with dyes 1-10 was performed according to the following procedure. […] The PDA (UV detector) was set to scan from 190-800 nm and a channel of the FLD (fluorescence detector) was set at 562 nm/583 nm (Ex/Em). […] The areas of the void peaks from the 214 nm absorption and the 583 nm emission were calculated by the LabSolutions software using the manual integration function. […]
recorded-metric: FLD area (EV + dye)
A bare number is all that is needed in reply.

molecule	FLD area (EV + dye)
CCCCCCCCCCCCCCCCCCN(CCO)C(=O)c1ccccc1-c1c2ccc(=[N+](CC)CC)cc-2oc2cc(N(CC)CC)ccc12.[Cl-] [Dye 9]	4558422
CCCCCCCCCCCCCCCCCCCCN(CCOC)C(=O)c1ccccc1-c1c2ccc(=[N+](CC)CC)cc-2oc2cc(N(CC)CC)ccc12.[Cl-] [Dye 10]	2826617

Annotate the molecule CCCCCCCCCCCCCCCCCCCCCCN(C)C(=O)c1ccccc1-c1c2ccc(=[N+](CC)CC)cc-2oc2cc(N(CC)CC)ccc12.[Cl-] [Dye 4] with its measured FLD area (EV + dye).
1901680

Return reported FLD area (EV + dye). Input molecule: CCCCCCCCCCCCCCCCCCN(C)C(=O)c1ccccc1-c1c2ccc(=[N+](CC)CC)cc-2oc2cc(N(CC)CC)ccc12.[Cl-] [Dye 2, Rhodamine B N-methyloctadecylamide]
2493643

Kindly indicate its recorded FLD area (EV + dye). Item: CCCCCCCCCCCCCCCCCCCCN(C)C(=O)c1ccccc1-c1c2ccc(=[N+](CC)CC)cc-2oc2cc(N(CC)CC)ccc12.[Cl-] [Dye 3, Rhodamine B N-methylicosaneamide]
4270562
